Hey, just so you know, these numbers are from patent US5242783A.

assay: Deblocking of ester in pH 10.0 carbonate buffer with hydroxylamine (A+C), reaction half-life and rate enhancement; assay type: physicochemical; conditions: pH 10.0, 25° C.
# reported Ratio of the A+B half-life to the A+C half-life (rate enhancement); entries follow

# compound, result
rows = [
    ("CC1(C(=O)Oc2ccc([N+](=O)[O-])cc2)CN(C(=O)OCc2ccc([N+](=O)[O-])cc2)CCC1=O (stereo not drawn)", "3.6 × 10^4"),
    ("COc1ccc(C(=O)N2CCC(=O)C(C)(C(=O)Oc3ccc([N+](=O)[O-])cc3)C2)cc1 (stereo not drawn)", "2.9 × 10^4"),
    ("CC(=O)C(C)(C)C(=O)Oc1ccccc1 [Example E-5, reference compound]", "3.7 × 10^4"),
    ("CC(=O)CC(C)(C)C(=O)Oc1ccccc1 [Example E-6, reference compound]", "1.7 × 10^2"),
    ("CN(C(=O)N1CCC(=O)C(C)(C(=O)Oc2ccc([N+](=O)[O-])cc2)C1)c1ccccc1 (stereo not drawn)", "3.8 × 10^4"),
]

Alright, here's another compound for you.
Prompt: Any idea what Ratio of the A+B half-life to the A+C half-life (rate enhancement) was measured for CC1(C(=O)Oc2ccc([N+](=O)[O-])cc2)CCCCC1=O (stereo not drawn) [Example E-4, reference compound] ?
Response: 2.3 × 10^5
